Reference source: the supplement of paper PMC9112550

Recorded shrunken log2 fold change, one value per entry.
Test system: Escherichia coli TOP10;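 further: peptides expressed intracellularly from a pBAD plasmid library in pooled LB shake-flask culture, induced with 0.3% L-arabinose, DNA abundance read by NGS, three biological replicates, DESeq2 with apeglm shrinkage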
TEST: shrunken log2 fold change of peptide-encoding DNA abundance (4.5 h post-induction vs induction); higher = less antimicrobial activity (less host growth inhibition)
CONDITION_INFO: time post-induction: 4.5 h; library: site-saturation at positions 5, 18, 19, 20
Answer using only a numeral; do not append any unit.

// known answers, use as guide
[[record]]
construct_sequence = "RRIRNRPPRLPRPRPRPVSMPRP"
value = -0.0312

[[record]]
construct_sequence = "RRIRTRPPRLPRPRPRPQFYPRP"
value = -0.791

[[record]]
construct_sequence = "RRIRQRPPRLPRPRPRPANEPRP"
value = -0.104

[[record]]
construct_sequence = "RRIRWRPPRLPRPRPRPEFNPRP"
value = 0.609

[[record]]
construct_sequence = "RRIRVRPPRLPRPRPRPWFAPRP"
value = -0.191

[[record]]
construct_sequence = "RRIRWRPPRLPRPRPRPYWHPRP"
value = -0.377


We next turn to a different sequence, shown below.
**Query** Requested read-out: shrunken log2 fold change. Entry: RRIRERPPRLPRPRPRPRWGPRP
**Result** 0.239
